Assay: solubility in reaction solvents for scale-up
Assay type: physicochemical
Settings: methanol, solubility in methanol
metric: solubility

Reported solubility, molecule `CN1CC[C@H](c2c(O)cc(O)c3c(=O)cc(/C=C/c4c(Cl)cccc4Cl)oc23)[C@H](O)C1` : ____ ~500 µg/mL
